- target.or.system: UniProtKB P9WPL1
- Sequence (P9WPL1 31-434): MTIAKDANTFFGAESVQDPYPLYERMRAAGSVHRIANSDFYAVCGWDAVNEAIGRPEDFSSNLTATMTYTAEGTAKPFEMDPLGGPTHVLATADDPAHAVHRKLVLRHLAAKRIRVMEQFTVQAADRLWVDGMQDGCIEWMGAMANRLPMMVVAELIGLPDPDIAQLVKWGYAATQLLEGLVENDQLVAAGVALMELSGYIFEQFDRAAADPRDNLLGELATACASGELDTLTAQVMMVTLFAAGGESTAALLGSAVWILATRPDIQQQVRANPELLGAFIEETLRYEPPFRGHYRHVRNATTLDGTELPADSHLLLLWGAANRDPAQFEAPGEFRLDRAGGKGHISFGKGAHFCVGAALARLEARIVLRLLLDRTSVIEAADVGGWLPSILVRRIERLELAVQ
endpoint.label: Kd (nM)

compound: Clc1ccc(COC(Cn2ccnc2)c2ccc(Cl)cc2Cl)cc1 (stereo not shown)
target.or.system: UniProtKB P9WPL1
endpoint.label: Kd
result: 720
